System: Ca-calmodulin-stimulatable PDE I
Experiment: Inhibition of the phosphodiesterases in vitro: PDE I
Assay type: biochemical
Conditions: PDE I from porcine aorta or porcine brain; nucleotide 10^-6 mol/l; 1 μM CaCl2, 0.1 μM calmodulin; pH 7.5, 30 minutes
Procedure: The cGMP-stimulatable PDE II, the cGMP-inhibitable PDE III and the cAMP-specific PDE IV were isolated from either porcine or bovine myocardium. The Ca-calmodulin-stimulatable PDE I was isolated from the porcine aorta or porcine brain. […] The enzyme activity is determined in a test batch of 100 μl in 20 mM Tris/HCl buffer of pH 7.5 which comprises 5 mM MgCl2, 0.1 mg/ml of bovine serum albumin and either 800 Bq of ^3 HcAMP or ^3 HcGMP. […]
pIC50: −log10 of the molar value.
Observation Type: pIC50

[[record]]
molecule = "CC(CCCc1ccccc1)n1cnc2c(=O)[nH]c(C3CC3)nc21 (centres unmarked)"
observation_type = "pIC50"
experimental_result = 5.40


1 = CC(CCCc1ccccc1)n1cnc2c(=O)[nH]c(-c3ccc4c(c3)OCO4)nc21 (centres unmarked)
2 = CC(CCCc1ccccc1)n1cnc2c(=O)[nH]c(-c3ccc(-c4ccccc4)cc3)nc21 (centres unmarked)
3 = CC(O)C(CCCc1ccccc1)n1cnc2c(=O)[nH]c(C3CCCCC3)nc21 (centres unmarked)
4 = CCCCCCC(C(C)O)n1cnc2c(=O)[nH]c(-c3ccc(Cl)cc3)nc21 (centres unmarked)
query: Order the records, beginning with the lowest pIC50 and ending with the highest. Give me the labels in the order the question wants.
result: 3, 4, 1, 2

Data provenance is patent US5861404A.
